# Test system: Bacillus subtilis
# measurement.notes: Antibiofilm activity against Bacillus subtilis MTCC 121 after 24 hrs by crystal violet staining based assay
# Type: functional, organism-based
# condition.notes: MTCC 121, 24 h

substance.smiles: O=C1C=C(N2CC2)C(=O)C(c2cc(-c3ccc(C(=O)N4CCCCC4)s3)on2)=C1N1CC1
IC50 (nM): 2800
--
substance.smiles: CN(C)C(=O)c1ccc(-c2cc(C3=C(N4CC4)C(=O)C=C(N4CC4)C3=O)no2)s1
IC50 (nM): 2200
--
substance.smiles: O=C1C=C(N2CC2)C(=O)C(c2cc(-c3ccc(C(=O)NCC4CC4)s3)on2)=C1N1CC1
IC50 (nM): 9800
--
substance.smiles: CO[C@@]12[C@H](COC(N)=O)C3=C(C(=O)C(C)=C(N)C3=O)N1C[C@@H]1N[C@@H]12
IC50 (nM): 300
--
substance.smiles: CCCN(C)C(=O)c1ccc(-c2cc(C3=C(N4CC4)C(=O)C=C(N4CC4)C3=O)no2)s1
IC50 (nM): 2200
--
substance.smiles: O=C1C=C(N2CC2)C(=O)C(c2cc(-c3ccc(C(=O)N4CCOCC4)s3)on2)=C1N1CC1
IC50 (nM): 2800
--
substance.smiles: O=C1C=C(N2CC2)C(=O)C(c2cc(-c3ccc(C(=O)N4CCC(C(F)(F)F)CC4)s3)on2)=C1N1CC1
IC50 (nM): 2100

###

# Test system: Candida albicans
# measurement.notes: Antimicrobial activity against Candida albicans MTCC 3017 after 24 hrs by well diffusion method
# Format: functional
# condition.notes: MTCC 3017, 24 h
quantity: MIC (µg/mL)

compound: O=C1C=C(N2CC2)C(=O)C(c2cc(-c3ccc(C(=O)NCC4CC4)s3)on2)=C1N1CC1
reported.relation: =
val: 15.6
--
compound: CN(Cc1ccc(F)cc1)C(=O)c1ccc(-c2cc(C3=C(N4CC4)C(=O)C=C(N4CC4)C3=O)no2)s1
reported.relation: >
val: 125
--
compound: CN(C)C(=O)c1ccc(-c2cc(C3=C(N4CC4)C(=O)C=C(N4CC4)C3=O)no2)s1
reported.relation: =
val: 15.6
--
compound: CCN(CC)C(=O)c1ccc(-c2cc(C3=C(N4CC4)C(=O)C=C(N4CC4)C3=O)no2)s1
reported.relation: =
val: 15.6
--
compound: CN(Cc1ccccc1)C(=O)c1ccc(-c2cc(C3=C(N4CC4)C(=O)C=C(N4CC4)C3=O)no2)s1
reported.relation: >
val: 125
--
compound: Clc1ccc(COC(Cn2ccnc2)c2ccc(Cl)cc2Cl)c(Cl)c1 (stereo not drawn)
reported.relation: =
val: 7.8
--
compound: O=C1C=C(N2CC2)C(=O)C(c2cc(-c3ccc(C(=O)N4CCC(C(F)(F)F)CC4)s3)on2)=C1N1CC1
reported.relation: =
val: 31.2
--
compound: O=C1C=C(N2CC2)C(=O)C(c2cc(-c3ccc(C(=O)N4CCCC4)s3)on2)=C1N1CC1
reported.relation: =
val: 31.2

###

# Tested on: Staphylococcus aureus
# measurement.notes: Antibiofilm activity against Staphylococcus aureus MTCC 96 after 24 hrs by crystal violet staining based assay
# Assay type: functional, organism-based
# condition.notes: MTCC 96, 24 h
pIC50: −log10 of the molar value.

substance.smiles: CN(C)C(=O)c1ccc(-c2cc(C3=C(N4CC4)C(=O)C=C(N4CC4)C3=O)no2)s1
pIC50: 5.01
//
substance.smiles: CCCN(C)C(=O)c1ccc(-c2cc(C3=C(N4CC4)C(=O)C=C(N4CC4)C3=O)no2)s1
pIC50: 5.34
//
substance.smiles: CO[C@@]12[C@H](COC(N)=O)C3=C(C(=O)C(C)=C(N)C3=O)N1C[C@@H]1N[C@@H]12
pIC50: 5.96
//
substance.smiles: O=C(O)c1cn(C2CC2)c2cc(N3CCNCC3)c(F)cc2c1=O
pIC50: 6.15
//
substance.smiles: O=C1C=C(N2CC2)C(=O)C(c2cc(-c3ccc(C(=O)N4CCCCC4)s3)on2)=C1N1CC1
pIC50: 4.95
//
substance.smiles: O=C1C=C(N2CC2)C(=O)C(c2cc(-c3ccc(C(=O)N4CCOCC4)s3)on2)=C1N1CC1
pIC50: 5.60

###

Reported MBC is given for each of the following compounds.
# Tested on: Staphylococcus aureus
# measurement.notes: Bactericidal activity against Staphylococcus aureus MTCC 96 after 24 hrs by serial dilution method
# Format: functional
# condition.notes: MTCC 96, 24 h

substance.smiles: CN(Cc1ccc(F)cc1)C(=O)c1ccc(-c2cc(C3=C(N4CC4)C(=O)C=C(N4CC4)C3=O)no2)s1
MBC: > 125 µg/mL
//
substance.smiles: O=C1C=C(N2CC2)C(=O)C(c2cc(-c3ccc(C(=O)N4CCCCC4)s3)on2)=C1N1CC1
MBC: 31.2 µg/mL
//
substance.smiles: CN(Cc1ccccc1)C(=O)c1ccc(-c2cc(C3=C(N4CC4)C(=O)C=C(N4CC4)C3=O)no2)s1
MBC: 62.5 µg/mL
//
substance.smiles: CCN(CC)C(=O)c1ccc(-c2cc(C3=C(N4CC4)C(=O)C=C(N4CC4)C3=O)no2)s1
MBC: 15.6 µg/mL
//
substance.smiles: O=C1C=C(N2CC2)C(=O)C(c2cc(-c3ccc(C(=O)NCC4CC4)s3)on2)=C1N1CC1
MBC: > 125 µg/mL
//
substance.smiles: O=C1C=C(N2CC2)C(=O)C(c2cc(-c3ccc(C(=O)N4CCCC4)s3)on2)=C1N1CC1
MBC: 31.2 µg/mL
//
substance.smiles: O=C1C=C(N2CC2)C(=O)C(c2cc(-c3ccc(C(=O)N4CCC(C(F)(F)F)CC4)s3)on2)=C1N1CC1
MBC: > 125 µg/mL

###

# Tested on: Staphylococcus aureus
# measurement.notes: Bactericidal activity against Staphylococcus aureus MTCC 96 after 24 hrs by serial dilution method
# Format: functional
# condition.notes: MTCC 96, 24 h
// assign 1.0 if MBC falls strictly below 8 µg/mL, else 0.0 (ties count as 0.0)

compound: CO[C@@]12[C@H](COC(N)=O)C3=C(C(=O)C(C)=C(N)C3=O)N1C[C@@H]1N[C@@H]12 [MITOMYCIN]
discrete.label: 1.0
//
compound: O=C(O)c1cn(C2CC2)c2cc(N3CCNCC3)c(F)cc2c1=O [CIPROFLOXACIN]
discrete.label: 1.0
//
compound: CCCN(C)C(=O)c1ccc(-c2cc(C3=C(N4CC4)C(=O)C=C(N4CC4)C3=O)no2)s1
discrete.label: 0.0
//
compound: CN(C)C(=O)c1ccc(-c2cc(C3=C(N4CC4)C(=O)C=C(N4CC4)C3=O)no2)s1
discrete.label: 0.0

###

Below, each entry is listed alongside its reported MIC.
# System: Candida albicans
# measurement.notes: Antimicrobial activity against Candida albicans MTCC 3017 after 24 hrs by well diffusion method
# Type: functional
# condition.notes: MTCC 3017, 24 h
quantity: MIC

compound: CCCN(C)C(=O)c1ccc(-c2cc(C3=C(N4CC4)C(=O)C=C(N4CC4)C3=O)no2)s1
val: 7.8 µg/mL
--
compound: O=C1C=C(N2CC2)C(=O)C(c2cc(-c3ccc(C(=O)N4CCOCC4)s3)on2)=C1N1CC1
val: 7.8 µg/mL
--
compound: CO[C@@]12[C@H](COC(N)=O)C3=C(C(=O)C(C)=C(N)C3=O)N1C[C@@H]1N[C@@H]12 [MITOMYCIN]
val: > 500 µg/mL
--
compound: O=C1C=C(N2CC2)C(=O)C(c2cc(-c3ccc(C(=O)N4CCCCC4)s3)on2)=C1N1CC1
val: 15.6 µg/mL

###

Form field: MIC (one value per entry).
# System: Pseudomonas aeruginosa
# measurement.notes: Antimicrobial activity against Pseudomonas aeruginosa MTCC 2453 after 24 hrs by well diffusion method
# Assay type: functional
# condition.notes: MTCC 2453, 24 h
quantity: MIC

compound: O=C1C=C(N2CC2)C(=O)C(c2cc(-c3ccc(C(=O)N4CCCCC4)s3)on2)=C1N1CC1
val: > 125 µg/mL
--
compound: CO[C@@]12[C@H](COC(N)=O)C3=C(C(=O)C(C)=C(N)C3=O)N1C[C@@H]1N[C@@H]12 [MITOMYCIN]
val: 1.9 µg/mL
--
compound: O=C(O)c1cn(C2CC2)c2cc(N3CCNCC3)c(F)cc2c1=O [CIPROFLOXACIN]
val: 0.9 µg/mL
--
compound: O=C1C=C(N2CC2)C(=O)C(c2cc(-c3ccc(C(=O)NCC4CC4)s3)on2)=C1N1CC1
val: > 125 µg/mL
--
compound: CN(Cc1ccccc1)C(=O)c1ccc(-c2cc(C3=C(N4CC4)C(=O)C=C(N4CC4)C3=O)no2)s1
val: > 125 µg/mL
--
compound: O=C1C=C(N2CC2)C(=O)C(c2cc(-c3ccc(C(=O)N4CCOCC4)s3)on2)=C1N1CC1
val: > 125 µg/mL
--
compound: CCCN(C)C(=O)c1ccc(-c2cc(C3=C(N4CC4)C(=O)C=C(N4CC4)C3=O)no2)s1
val: > 125 µg/mL
--
compound: CN(Cc1ccc(F)cc1)C(=O)c1ccc(-c2cc(C3=C(N4CC4)C(=O)C=C(N4CC4)C3=O)no2)s1
val: > 125 µg/mL
